# IC50 per entry
# SYSTEM NAME: BRD4 BD2 (Homo sapiens, UniProt O60885)
# ASSAY REMARKS: AlphaScreen binding assay, BRD4 Bromodomain 2

>>> print(df.to_string())
                              sample_smiles                              system_name  reported_value
0  CC(=O)N1c2ccc(-c3cn[nH]c3)cc2N(C(=O)OC2CCCC2)C[C@@H]1C  BRD4 BD2 (Homo sapiens, UniProt O60885)    50 to 500 nM
1  COC(=O)N1c2ccc(-c3ccc(S(C)(=O)=O)cc3)cc2N(C(=O)Oc2cccnc2)C[C@@H]1C  BRD4 BD2 (Homo sapiens, UniProt O60885)    50 to 500 nM
2  CC(=O)N1c2ccccc2N(Cc2ccc(OC(C)C)cc2)C[C@@H]1C  BRD4 BD2 (Homo sapiens, UniProt O60885)        > 500 nM

// below: IC50 requested for another compound
Request: Read the entry CC(=O)N1c2ccc(-c3cnn(C4CNC4)c3)cc2N(C(=O)Oc2cccnc2)C[C@@H]1C and write its reported IC50.
Response: 50 to 500 nM
